target: integrin αvβ5 (Homo sapiens, UniProt P06756+P18084); construct: purchased Chemicon CC1022; assay: Binding to integrin αvβ5 receptors ((125I) Echistatin displacement); conditions: 0.05 nM (125I) Echistatin, plate coated with 1 μg/ml integrin; read-out: αvβ5 IC50 ± SD
Sequence (P06756 31-889 limits assumed): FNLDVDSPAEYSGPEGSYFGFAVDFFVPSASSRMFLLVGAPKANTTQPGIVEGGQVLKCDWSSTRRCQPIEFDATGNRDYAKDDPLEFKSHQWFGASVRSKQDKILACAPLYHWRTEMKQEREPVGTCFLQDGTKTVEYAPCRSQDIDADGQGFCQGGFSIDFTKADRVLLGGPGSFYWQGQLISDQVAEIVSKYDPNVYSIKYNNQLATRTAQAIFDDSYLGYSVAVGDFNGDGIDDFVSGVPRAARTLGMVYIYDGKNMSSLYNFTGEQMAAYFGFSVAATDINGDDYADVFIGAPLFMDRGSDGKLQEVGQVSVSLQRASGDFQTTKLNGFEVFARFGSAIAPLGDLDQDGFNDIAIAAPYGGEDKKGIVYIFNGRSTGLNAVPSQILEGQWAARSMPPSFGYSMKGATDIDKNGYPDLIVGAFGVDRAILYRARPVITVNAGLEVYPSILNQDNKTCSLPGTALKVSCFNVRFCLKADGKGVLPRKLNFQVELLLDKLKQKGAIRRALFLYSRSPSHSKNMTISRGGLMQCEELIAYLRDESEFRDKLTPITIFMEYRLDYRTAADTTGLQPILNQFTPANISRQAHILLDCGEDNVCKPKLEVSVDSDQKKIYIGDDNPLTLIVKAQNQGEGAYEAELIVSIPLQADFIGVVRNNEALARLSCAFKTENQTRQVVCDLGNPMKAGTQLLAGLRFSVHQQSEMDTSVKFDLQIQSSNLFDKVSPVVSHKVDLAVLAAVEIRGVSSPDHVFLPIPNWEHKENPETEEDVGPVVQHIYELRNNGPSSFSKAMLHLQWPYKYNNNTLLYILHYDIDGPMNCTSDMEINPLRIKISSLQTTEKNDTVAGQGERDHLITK
Sequence (P06756 891-1048 partner limits assumed): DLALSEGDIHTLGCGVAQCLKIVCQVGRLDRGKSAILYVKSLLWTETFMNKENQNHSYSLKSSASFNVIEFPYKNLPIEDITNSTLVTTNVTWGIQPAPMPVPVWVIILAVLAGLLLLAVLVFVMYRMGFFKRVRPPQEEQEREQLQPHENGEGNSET
Sequence (P18084 24-799): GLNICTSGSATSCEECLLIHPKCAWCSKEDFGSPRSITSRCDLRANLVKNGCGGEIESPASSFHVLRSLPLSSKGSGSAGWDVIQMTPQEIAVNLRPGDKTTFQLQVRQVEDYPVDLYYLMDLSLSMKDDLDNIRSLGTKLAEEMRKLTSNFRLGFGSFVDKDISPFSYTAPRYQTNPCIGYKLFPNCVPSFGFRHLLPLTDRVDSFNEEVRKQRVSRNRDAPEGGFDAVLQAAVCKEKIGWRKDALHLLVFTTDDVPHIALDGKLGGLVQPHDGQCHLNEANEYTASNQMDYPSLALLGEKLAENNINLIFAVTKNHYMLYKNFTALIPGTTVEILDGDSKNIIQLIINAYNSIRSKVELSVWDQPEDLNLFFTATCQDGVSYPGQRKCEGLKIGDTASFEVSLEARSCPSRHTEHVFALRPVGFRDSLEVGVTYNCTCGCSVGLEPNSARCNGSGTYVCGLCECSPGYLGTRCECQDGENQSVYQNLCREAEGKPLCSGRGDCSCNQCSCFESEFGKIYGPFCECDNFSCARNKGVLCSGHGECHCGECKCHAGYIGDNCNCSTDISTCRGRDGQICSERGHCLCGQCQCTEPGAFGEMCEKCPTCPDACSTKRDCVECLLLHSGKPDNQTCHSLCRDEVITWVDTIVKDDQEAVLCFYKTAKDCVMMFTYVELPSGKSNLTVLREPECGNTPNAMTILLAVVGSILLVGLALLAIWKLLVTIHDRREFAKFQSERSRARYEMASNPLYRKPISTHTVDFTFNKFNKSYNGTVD
pIC50: −log10 of the molar value.

>  <substance>
c(Arg-Gly-Asp-D-Phe-(R,S)-Dfm-Phe) [ST1932]

>  <system-tested>
integrin αvβ5 (Homo sapiens, UniProt P06756+P18084)

>  <pIC50>
8.26

$$$$

---

molecular target: integrin αvβ3 (Homo sapiens, UniProt P05106+P06756); experiment: Binding to integrin αvβ3 receptors ((125I) Echistatin displacement); details: 0.05 nM (125I) Echistatin, 3-hour incubation, plate coated with 0.5 μg/ml integrin; read-out: αvβ3 IC50 ± SD
Sequence (P06756 31-889 limits assumed): as the sequence (P06756 31-889 limits assumed) above
Sequence (P06756 891-1048 partner limits assumed): as the sequence (P06756 891-1048 partner limits assumed) above
Sequence (P05106 27-788): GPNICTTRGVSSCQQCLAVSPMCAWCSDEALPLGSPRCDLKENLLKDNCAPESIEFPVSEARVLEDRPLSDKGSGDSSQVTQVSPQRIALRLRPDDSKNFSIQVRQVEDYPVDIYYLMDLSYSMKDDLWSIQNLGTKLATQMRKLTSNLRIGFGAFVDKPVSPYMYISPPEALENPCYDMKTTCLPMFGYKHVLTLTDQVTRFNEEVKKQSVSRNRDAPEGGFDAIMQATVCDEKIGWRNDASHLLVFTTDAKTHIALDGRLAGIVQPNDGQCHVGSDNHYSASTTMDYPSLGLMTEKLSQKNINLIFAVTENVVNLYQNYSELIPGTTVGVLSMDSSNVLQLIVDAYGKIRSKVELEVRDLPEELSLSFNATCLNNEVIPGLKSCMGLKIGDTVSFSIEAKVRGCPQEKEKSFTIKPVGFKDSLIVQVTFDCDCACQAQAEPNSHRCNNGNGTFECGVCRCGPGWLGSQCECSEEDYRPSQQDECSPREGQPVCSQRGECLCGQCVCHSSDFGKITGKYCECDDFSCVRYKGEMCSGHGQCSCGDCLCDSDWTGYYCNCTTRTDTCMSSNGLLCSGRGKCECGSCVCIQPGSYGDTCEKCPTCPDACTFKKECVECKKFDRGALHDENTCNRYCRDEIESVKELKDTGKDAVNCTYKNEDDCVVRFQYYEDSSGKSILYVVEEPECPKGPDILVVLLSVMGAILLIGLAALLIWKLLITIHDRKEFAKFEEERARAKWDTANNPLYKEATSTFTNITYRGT
Each item that follows carries a reported IC50.
measured-endpoint: IC50 (nM)

>  <molecule>
CC(C)[C@@H]1NC(=O)[C@@H](Cc2ccccc2)NC(=O)C(CC(=O)O)(C(F)(F)F)NC(=O)CNC(=O)[C@H](CCCNC(=N)N)NC1=O (single isomer, unassigned) [ST2189, c(Arg-Gly-(R or S)-Tfm-Asp-D-Phe-Val)]

>  <u>
nM

>  <inequality-symbol>
>

>  <readout-number>
10000

$$$$
>  <molecule>
CC(C)[C@@H]1NC(=O)C(Cc2ccccc2)(C(F)(F)F)NC(=O)[C@H](CC(=O)O)NC(=O)CNC(=O)[C@H](CCCNC(=N)N)NC1=O (single isomer, unassigned) [ST2191, c(Arg-Gly-Asp-(R o S)-Tfm-Phe-Val)]

>  <u>
nM

>  <inequality-symbol>
=

>  <readout-number>
237

$$$$
>  <molecule>
CC(C)[C@@H]1NC(=O)[C@@H](Cc2ccccc2)NC(=O)C(CC(=O)O)(C(F)(F)F)NC(=O)CNC(=O)[C@H](CCCNC(=N)N)NC1=O (single isomer, unassigned) [ST2190, c(Arg-Gly-(R or S)-Tfm-Asp-D-Phe-Val)]

>  <u>
nM

>  <inequality-symbol>
>

>  <readout-number>
10000

$$$$
>  <molecule>
CC(C)[C@@H]1NC(=O)C(Cc2ccccc2)(C(F)(F)F)NC(=O)[C@H](CC(=O)O)NC(=O)CNC(=O)[C@H](CCCNC(=N)N)NC1=O (single isomer, unassigned) [ST2192, c(Arg-Gly-Asp-(R o S)-Tfm-Phe-Val)]

>  <u>
nM

>  <inequality-symbol>
=

>  <readout-number>
1020

$$$$
